These measurements were taken from patent US9833497B2.

# Test system: Pseudomonas aeruginosa
# ASSAY NAME: MIC against Gram-negative bacteria: Pseudomonas aeruginosa
# Assay type: cell-based
# MEASUREMENT CONTEXT: 10 h cultivation at 37° C., 5×10^5 CFU/mL, two-fold serial dilution
MIC P. aeruginosa listing for selected substances.
Provide only the numeric value, understood in µg/mL.

>  <SUBSTANCE>
PRT1192 (DIDECASNPCAAGGTCVDQVDGFECICPEQWVGATCQ; listed as Homo sapiens)

>  <QUANTITATIVE READOUT>
25

$$$$

// next entry
Tell me MIC P. aeruginosa of PRT1142 (DVNKCKISPCLDEENCVYRTDGYNCLCAPGYTGINCE; listed as Homo sapiens) when tested on Pseudomonas aeruginosa.
25

====

MIC (μg/mL) P. aeruginosa listing for selected substances.
# System: Pseudomonas aeruginosa
# ASSAY NAME: MIC against Gram-negative bacteria: Pseudomonas aeruginosa
# Type: cell-based
# MEASUREMENT CONTEXT: P. aeruginosa; 10 h cultivation at 37° C.; 5×10^5 CFU/mL
Provide only the numeric value, understood in µg/mL.

As a guide, the following entries are already answered.
>  <SUBSTANCE>
PRT835 (DVDECASSRGGCEHHCTNLAGSFQCSCEAGYRLHEDRRGCS; listed as Homo sapiens)

>  <OBSERVATION TYPE>
MIC (μg/mL) P. aeruginosa

>  <QUANTITATIVE READOUT>
25

$$$$
>  <SUBSTANCE>
PRT780 (EYSSCSRHPCQNGGTCINGRTSFTCACRHPFTGDNCT; listed as Homo sapiens)

>  <OBSERVATION TYPE>
MIC (μg/mL) P. aeruginosa

>  <QUANTITATIVE READOUT>
12.5

$$$$

Fill in reported MIC (μg/mL) P. aeruginosa for this entry: PRT194 (CRSKCHGHGVCDSNRHCYCEEGWAPPDCT; listed as Homo sapiens)
12.5

Fill in reported MIC (μg/mL) P. aeruginosa for this entry: PRT171 (CDPSPCKNGGSCTDLENSYSCTCPPGFYGKIC; listed as Homo sapiens)
25

Fill in reported MIC (μg/mL) P. aeruginosa for this entry: PRT217 (DIDECTIPPYCHQRCVNTPGSFYCQCSPGFQLAANNYTCV; listed as Homo sapiens)
12.5

Fill in reported MIC (μg/mL) P. aeruginosa for this entry: PRT177 (GPGPCDGNPCANGGSCSETPRSFECTCPRGFYGLRCE; listed as Homo sapiens)
12.5

====

MIC (μg/mL) P. aeruginosa listing for selected substances.
# Tested on: Pseudomonas aeruginosa
# ASSAY NAME: MIC against Gram-negative bacteria: Pseudomonas aeruginosa
# Type: cell-based
# MEASUREMENT CONTEXT: P. aeruginosa; 10 h cultivation at 37° C.; 5×10^5 CFU/mL
Provide only the numeric value, understood in µg/mL.

As a guide, the following entries are already answered.
>  <SUBSTANCE>
PRT836 (FGHDCSLTCDDCRNGGTCLLGLDGCDCPEGWTGLICN; listed as Homo sapiens)

>  <SYSTEM UNDER TEST>
Pseudomonas aeruginosa

>  <MIC (μg/mL) P. aeruginosa / µg/mL>
50

$$$$
>  <SUBSTANCE>
PRT802 (SNRCQCQNGALCNPITGACVCAAGFRGWRCE; listed as Homo sapiens)

>  <SYSTEM UNDER TEST>
Pseudomonas aeruginosa

>  <MIC (μg/mL) P. aeruginosa / µg/mL>
25

$$$$
>  <SUBSTANCE>
PRT170 (CTHHKPCKNGATCTNTGQGSYTCSCRPGYTGATC; listed as Homo sapiens)

>  <SYSTEM UNDER TEST>
Pseudomonas aeruginosa

>  <MIC (μg/mL) P. aeruginosa / µg/mL>
12.5

$$$$
>  <SUBSTANCE>
PRT757 (RINYCALNKPGCEHECVNMEESYYCRCHRGYTLDPNGKTCS; listed as Homo sapiens)

>  <SYSTEM UNDER TEST>
Pseudomonas aeruginosa

>  <MIC (μg/mL) P. aeruginosa / µg/mL>
50

$$$$
>  <SUBSTANCE>
PRT744 (GWNECASSNGHCSHLCLAVPVGGFVCGCPAHYSLNADNRTCS; listed as Homo sapiens)

>  <SYSTEM UNDER TEST>
Pseudomonas aeruginosa

>  <MIC (μg/mL) P. aeruginosa / µg/mL>
12.5

$$$$
>  <SUBSTANCE>
PRT238 (DICDPNPCENGGICLPGLADGSFSCECPDGFTDPNCS; listed as Homo sapiens)

>  <SYSTEM UNDER TEST>
Pseudomonas aeruginosa

>  <MIC (μg/mL) P. aeruginosa / µg/mL>
25

$$$$

Tell me MIC (μg/mL) P. aeruginosa of PRT173 (CSSSPCSNGAKCVDLGDAYLCRCQAGFSGRHC; listed as Homo sapiens) when tested on Pseudomonas aeruginosa.
12.5

Tell me MIC (μg/mL) P. aeruginosa of PRT774 (LTLRCDYYGCNQTADDCLNGLACDCKSDLQRPNPQSPFCV; listed as Homo sapiens) when tested on Pseudomonas aeruginosa.
12.5

Tell me MIC (μg/mL) P. aeruginosa of PRT175 (CEHAPCHNGATCHERGHRYVCECARGYGGPNC; listed as Homo sapiens) when tested on Pseudomonas aeruginosa.
12.5

Tell me MIC (μg/mL) P. aeruginosa of PRT762 (ALDPCVLGTHQCQHVCISDGEGKHHCECSQGYTLNADKKTCS; listed as Homo sapiens) when tested on Pseudomonas aeruginosa.
50

Tell me MIC (μg/mL) P. aeruginosa of PRT813 (FGVNCSSSCSCGGAPCHGVTGQCRCPPGRTGEDCE; listed as Homo sapiens) when tested on Pseudomonas aeruginosa.
50

Tell me MIC (μg/mL) P. aeruginosa of PRT195 (MGYNCNATTKCKGKGICNNFGNCQCFPGHRPPDCK; listed as Homo sapiens) when tested on Pseudomonas aeruginosa.
50

Tell me MIC (μg/mL) P. aeruginosa of PRT180 (DLDDCAGRACANGGTCVEGGGAHRCSCALGFGGRDCR; listed as Homo sapiens) when tested on Pseudomonas aeruginosa.
12.5

Tell me MIC (μg/mL) P. aeruginosa of PRT816 (WGPDCSHPCNCSAGHGSCDAISGLCLCEAGYVGPRCE; listed as Homo sapiens) when tested on Pseudomonas aeruginosa.
100

Tell me MIC (μg/mL) P. aeruginosa of PRT250 (DVDECRTSITLCSHHCFNTAGSFTCGCPHDLVLGVDGRTCM; listed as Homo sapiens) when tested on Pseudomonas aeruginosa.
12.5

Tell me MIC (μg/mL) P. aeruginosa of PRT807 (YGDGCQLPCTCQNGADCHSITGGCTCAPGFMGEVCA; listed as Homo sapiens) when tested on Pseudomonas aeruginosa.
25

====

# Test system: Proteus mirabilis
# ASSAY NAME: MIC against Gram-negative bacteria: Proteus mirabilis
# Assay type: cell-based
# MEASUREMENT CONTEXT: P. mirabilis; 10 h cultivation at 37° C.; 5×10^5 CFU/mL
MIC (μg/mL) P. mirabilis listing for selected substances.
Provide only the numeric value, understood in µg/mL.

>  <SUBSTANCE>
PRT240 (NINECEVEPCKNGGICTDLVANYSCECPGEFMGRNCQ; listed as Homo sapiens)

>  <SYSTEM UNDER TEST>
Proteus mirabilis

>  <MIC (μg/mL) P. mirabilis (µg/mL)>
100

$$$$
>  <SUBSTANCE>
PRT847 (CDCSPHGALSIPCNSSGKCQCKVGVIGSICDRCQDGYYGFSKNGCLP; listed as Homo sapiens)

>  <SYSTEM UNDER TEST>
Proteus mirabilis

>  <MIC (μg/mL) P. mirabilis (µg/mL)>
12.5

$$$$
>  <SUBSTANCE>
PRT167 (TPNPCENDGVCTDIGGDFRCRCPAGFIDKTC; listed as Homo sapiens)

>  <SYSTEM UNDER TEST>
Proteus mirabilis

>  <MIC (μg/mL) P. mirabilis (µg/mL)>
25

$$$$

// next entry
Fill in reported MIC (μg/mL) P. mirabilis for this entry: PRT172 (CADGPCFNGGRCSDSPDGGYSCRCPVGYSGFNC; listed as Homo sapiens)
12.5

====

MIC K. pneumonia listing for selected substances.
# Tested on: Klebsiella pneumonia
# ASSAY NAME: MIC against Gram-negative bacteria: Klebsiella pneumonia
# Type: cell-based
# MEASUREMENT CONTEXT: 96-well plate, 5×10^5 CFU/mL, 37° C., 10 h
Provide only the numeric value, understood in mg/L.

As a guide, the following entries are already answered.
>  <SUBSTANCE>
PRT727 (EFDDCQIWGICDQKCESRPGRHLCHCEEGYILERGQYCK; listed as Homo sapiens)

>  <SYSTEM UNDER TEST>
Klebsiella pneumonia

>  <QUANTITATIVE READOUT>
12.5

$$$$
>  <SUBSTANCE>
PRT619 (CNCQGGGACDPDTGDCYSGDENPDIECADCPIGFYNDPHDPRSCKP; listed as Homo sapiens)

>  <SYSTEM UNDER TEST>
Klebsiella pneumonia

>  <QUANTITATIVE READOUT>
25

$$$$
>  <SUBSTANCE>
PRT703 (NCSRLGCQHHCVPTLDGPTCYCNSSFQLQADGKTCK; listed as Homo sapiens)

>  <SYSTEM UNDER TEST>
Klebsiella pneumonia

>  <QUANTITATIVE READOUT>
25

$$$$

Fill in reported MIC K. pneumonia for this entry: PRT715 (DIDECSSGFPCSQQCINTYGTYKCLCTDGYEIQPDNPNGCK; listed as Homo sapiens)
12.5

Fill in reported MIC K. pneumonia for this entry: PRT648 (DIDECLNPSTCPDEQCVNSPGSYQCVPCTEGFRGWNGQCL; listed as Homo sapiens)
25

Fill in reported MIC K. pneumonia for this entry: PRT740 (GLNDCMHNNGQCGQLCLAIPGGHRCGCASHYTLDPSSRNCS; listed as Homo sapiens)
12.5

Fill in reported MIC K. pneumonia for this entry: PRT601 (CDCDIGGAYSNVCSPKNGQCECRPHVTGRSCSEPAPGYFFAPLNFYL; listed as Homo sapiens)
25

Fill in reported MIC K. pneumonia for this entry: PRT660 (DHDECQDLACENGECVNTEGSFHCFCSPPLTLDLSQQRCM; listed as Homo sapiens)
12.5

Fill in reported MIC K. pneumonia for this entry: PRT694 (DVDECRRVPPPCAPGRCENSPGSFRCVCGPGFRAGPRAAECL; listed as Homo sapiens)
25

Fill in reported MIC K. pneumonia for this entry: PRT688 (DVDECQLFRDQVCKSGVCVNTAPGYSCYCSNGYYYHTQRLECI; listed as Homo sapiens)
50

Fill in reported MIC K. pneumonia for this entry: PRT673 (DVDECLDESNCRNGVCENTRGGYRCACTPPAEYSPAQRQCL; listed as Homo sapiens)
50

Fill in reported MIC K. pneumonia for this entry: PRT652 (DLDECAFPGVCPSGVCTNTAGSFSCKDCDGGYRPSPLGDSCE; listed as Homo sapiens)
25

Fill in reported MIC K. pneumonia for this entry: PRT661 (QAEECGILNGCENGRCVRVREGYTCDCFEGFQLDAAHMACV; listed as Homo sapiens)
25
